For each entry below, report its protein stability index value.
B1: CLINT1 (parent)
chain: VVTSAREHIYDLRSLENYHFVDEH

Variants of: B1
Test: protein stability index of a GFP-peptide fusion (GPS, HEK-293T) (PSI 1-6); higher = more stable;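 further: lentivirally expressed fusions sorted by FACS into six bins by GFP to DsRed ratio, PSI derived from sequencing read proportions per bin multiplied by bin number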
Conditions: c terminus: a fixed tail appended
API note: the answer field is a bare number with no unit suffix.

Input: Report protein stability index, nothing else, for this variant: V1R
Output: 2.92

Input: Report protein stability index, nothing else, for this variant: T3P
Output: 2.99

Input: Report protein stability index, nothing else, for this variant: R6H
Output: 3.07
